System: KM-20L2
assay procedure: NCI tumour cell line growth inhibition, 48 h
Activity calls are given as the source filed them. Rule as the data show it: active = GI50 up to about 1.1 µM and inactive = higher. Where a SMILES comes first, the peptide text is derived from it. [ ]: non-standard residue; d: D form. 2Nal = N[CH](Cc1ccc2ccccc2c1)C(=O)O
endpoint name: GI50

compound: COc1ccc(C(=O)CC2=Nc3nnc(CCCCCCCc4nnc5n4C(=O)C(CC(=O)c4ccc(OC)cc4)=N5)n3C2=O)cc1
GI50: > 100 µM (inactive)

compound: CC(NC(=O)C(N)Cc1ccccc1)C(=O)NC(Cc1ccc(O)cc1)C(=O)NC(Cc1c[nH]c2ccccc12)C(=O)NC(CCCCN)C(=O)NC(C(=O)NC(C)C(=O)NC(Cc1ccc2ccccc2c1)C(N)=O)C(C)C (configuration not stated) (H-FAYWKVA[2Nal]-NH2; configuration not given here)
GI50: 27.1 µM (inactive)

compound: COC(=O)OCC1OC(N2C(=O)NC(=O)C(I)C2N=[N+]=[N-])CC1OC(=O)OC (configuration not stated)
GI50: > 100 µM (inactive)

compound: CN(C)c1ccc(/C=c2\sc3nnc(-c4ccco4)n3c2=O)cc1
GI50: > 100 µM (inactive)

compound: CN1c2ccccc2N(C(=O)c2ccccc2)C(CC(=O)O)c2cccn21 (configuration not stated)
GI50: > 100 µM (inactive)

Exam item: Specify reported GI50 for the compound shown: COC(=O)C(=O)C(C(=O)C=C(C)C)C(=O)C(=O)Nc1ccc(C)cc1C (configuration not stated)
Marked response: > 100 µM (inactive)

Exam item: Specify reported GI50 for the compound shown: `COc1ccc(/C=C/c2cc(OC)cc(OC)c2)cc1`
Marked response: 3.15 µM (inactive)

Exam item: Specify reported GI50 for the compound shown: CCOC(OC1=C(C#N)CCCC1)C(CC)[Se]c1ccccc1 (configuration not stated)
Marked response: 25.1 µM (inactive)

Exam item: Specify reported GI50 for the compound shown: `CC(/C=C/C(=O)c1sc(C(N)=S)nc1C)=C\c1ccccc1`
Marked response: 80.2 µM (inactive)

Exam item: Specify reported GI50 for the compound shown: O=P(O)(O)C1CCCC(P(=O)(O)O)N1 (configuration not stated)
Marked response: > 100 µM (inactive)

Exam item: Specify reported GI50 for the compound shown: `CSc1cnc2ccccc2c1Sc1cn(C)c2ccccc2c1=O`
Marked response: 38.9 µM (inactive)

Exam item: Specify reported GI50 for the compound shown: `COC(CN1C=C(Sc2ccccc2)CC1)OC`
Marked response: 38.8 µM (inactive)

----------
Tested on: K562
assay procedure: NCI tumour cell line growth inhibition, 48 h
The source made the active and inactive calls. Rule as the data show it: active = GI50 up to about 1.1 µM and inactive = higher.
Recorded GI50, one value per entry.

Below: 4 molecules and their reported GI50.
molecule: COc1ccc(OC)c([N+](=O)[O-])c1-c1nc2sc(C)cn2c1/C=N/N=C(N)N
test value: 2.49 µM (inactive)
--
molecule: CC(C)C[C@H](NC(=O)CCc1cccc2ccccc12)B(O)O
test value: 2.34 µM (inactive)
--
molecule: O=C(CC(C(=O)c1cccs1)c1ccc2c(c1)OCO2)c1ccc(Br)cc1 (configuration not stated)
test value: > 100 µM (inactive)
--
molecule: O=NN1C(c2ccccc2)CCCC1c1ccccc1 (configuration not stated)
test value: 35.9 µM (inactive)

Exam item: Specify reported GI50 for the molecule shown: `Cn1c(=O)c2[nH]cnc2n(CC(=O)O)c1=O`
Marked response: > 100 µM (inactive)

----------
Test system: SK-MEL-2
assay procedure: NCI tumour cell line growth inhibition, 48 h
Activity calls are given as the source filed them. No stated cut-off is given here; in the data, active = GI50 up to about 1.1 µM and inactive = higher. Where a SMILES comes first, the peptide text is derived from it. [ ]: non-standard residue; d: D form. 2Nal = N[CH](Cc1ccc2ccccc2c1)C(=O)O
endpoint name: GI50

Below: 3 compounds and their reported GI50.
compound: CCc1cccc(CC)c1Nc1nc(-c2ccccc2-c2ccccc2)cs1
endpoint name: GI50
test value: > 100 µM (inactive)
//
compound: COc1ccc(CCNC(=O)[C@H]2CCCC[C@@H]2CCO)cc1OC
endpoint name: GI50
test value: > 100 µM (inactive)
//
compound: CCN(CC)CCCn1c(=O)c2ccccc2n2c3c(=O)n(C)c(=O)n(C)c3nc12
endpoint name: GI50
test value: 18.3 µM (inactive)

Exam item: Specify reported GI50 for the compound shown: `O=C(O)Cc1cccc2c1Oc1ccccc1S2`
Marked response: > 100 µM (inactive)

Exam item: Specify reported GI50 for the compound shown: `CC(C)(C)CC(C)(C)NC(=S)NO`
Marked response: > 100 µM (inactive)

Exam item: Specify reported GI50 for the compound shown: NC(CCC(=O)NC(CSC(=O)N(O)c1ccc(Cl)cc1)C(=O)NCC(=O)O)C(=O)O (stereo not given)
Marked response: > 0.5 µM (active)

Exam item: Specify reported GI50 for the compound shown: O=C(OCC(OC(=O)c1ccccc1)C1CC(C(O)C2CCCCC2)C(=O)O1)c1ccccc1 (stereo not given)
Marked response: > 100 µM (inactive)

Exam item: Specify reported GI50 for the compound shown: `COc1cc(C(=O)O[C@@H]2[C@@H](OC(=O)c3cc(OC)c(OC)c(OC)c3)[C@@H](OC)O[C@@H]3CO[C@@H](c4ccccc4)O[C@@H]23)cc(OC)c1OC`
Marked response: > 100 µM (inactive)

Exam item: Specify reported GI50 for the compound shown: `Cc1cc(N(CCC#N)CCC#N)ccc1C(/N=N/c1ccc(C(=O)O)cc1)=N\NC(=O)c1ccccc1`
Marked response: > 100 µM (inactive)

Exam item: Specify reported GI50 for the compound shown: CC(NC(=O)C(N)Cc1ccccc1)C(=O)NC(Cc1ccc(O)cc1)C(=O)NC(Cc1c[nH]c2ccccc12)C(=O)NC(CCCCN)C(=O)NC(C(=O)NC(C)C(=O)NC(Cc1ccc2ccccc2c1)C(N)=O)C(C)C (stereo not given) (H-FAYWKVA[2Nal]-NH2; configuration not given here)
Marked response: > 12.5 µM (inactive)

----------
Tested on: UACC-62
assay procedure: NCI tumour cell line growth inhibition, 48 h
Calls of active or inactive are those of the source. Rule as the data show it: active = GI50 up to about 1.1 µM and inactive = higher.
endpoint name: GI50

Below: 5 compounds and their reported GI50.
compound: CN(C)c1ccc(/C=c2\sc3nnc(-c4ccco4)n3c2=O)cc1
GI50: > 100 µM (inactive)
--
compound: NS(=O)(=O)c1nnc(NS(=O)(=O)c2ccccc2C(=O)O)s1
GI50: > 100 µM (inactive)
--
compound: Cc1cc(OC(=O)Nc2ccc(Cl)cc2)ccc1C(=S)Nc1ccccc1
GI50: 3.85 µM (inactive)
--
compound: COc1cc(CNc2nc3c(N)cc(C(F)(F)F)cc3nc2-c2ccccc2)cc(OC)c1OC
GI50: 35.2 µM (inactive)
--
compound: O=C(O)CCC(=O)C(=O)O
GI50: > 100 µM (inactive)

Exam item: Specify reported GI50 for the compound shown: `O=C(O)Cc1cccc2c1Oc1ccccc1S2`
Marked response: > 100 µM (inactive)

Exam item: Specify reported GI50 for the compound shown: CCOC(=O)C1=C(C(=O)OCC)C2(c3ccccc3)N(O1)c1ccccc1C2(C)C (stereo not given)
Marked response: 36.5 µM (inactive)

Exam item: Specify reported GI50 for the compound shown: COC(=O)OCC1OC(N2C(=O)NC(=O)C(I)C2N=[N+]=[N-])CC1OC(=O)OC (stereo not given)
Marked response: > 100 µM (inactive)

Exam item: Specify reported GI50 for the compound shown: `CN1CCN(C(=S)N(C)C(=O)c2cccs2)CC1`
Marked response: > 100 µM (inactive)

----------
Recorded GI50, one value per entry.
Test system: DLD-1
assay procedure: NCI tumour cell line growth inhibition, 48 h
Activity calls are given as the source filed them. Rule as the data show it: active = GI50 up to about 1.1 µM and inactive = higher. Where a SMILES comes first, the peptide text is derived from it. [ ]: non-standard residue; d: D form. 2Nal = N[CH](Cc1ccc2ccccc2c1)C(=O)O

compound: COC(=O)C(Cc1cc(OC)c(OC)c(OC)c1)c1ccc(OC)cc1 (stereo not given)
GI50: > 100 µM (inactive)
--
compound: CCOC(OC1=C(C#N)CCC1)C(C)[Se]c1ccccc1 (stereo not given)
GI50: 30.5 µM (inactive)
--
compound: Cc1ccc(-n2c(=S)[nH]c3ccc(Br)cc3c2=O)cc1
GI50: 67.9 µM (inactive)
--
compound: Cc1ccc(S(=O)(=O)c2c(N)c3nc4ccccc4n3c3nc4ccccc4nc23)cc1
GI50: > 100 µM (inactive)
--
compound: CC(NC(=O)C(N)Cc1ccccc1)C(=O)NC(Cc1ccc(O)cc1)C(=O)NC(Cc1c[nH]c2ccccc12)C(=O)NC(CCCCN)C(=O)NC(C(=O)NC(C)C(=O)NC(Cc1ccc2ccccc2c1)C(N)=O)C(C)C (stereo not given) (H-FAYWKVA[2Nal]-NH2; configuration not given here)
GI50: 31.8 µM (inactive)

Exam item: Provide GI50, tested on DLD-1, for CCOC(=O)C(Cc1ccccc1)NC(=O)c1ccc(/N=N/N(C)C)cc1 (stereo not given) .
Marked response: > 100 µM (inactive)

Exam item: Provide GI50, tested on DLD-1, for `O=C(Cc1c(C(=O)Nc2ccccc2)sc(C(=O)Nc2ccccc2)c1CC(=O)Nc1ccccc1)Nc1ccccc1` .
Marked response: > 100 µM (inactive)

Exam item: Provide GI50, tested on DLD-1, for `CCc1cccc(C(C)C)c1NC(=O)C(=O)C1C(=O)NC(=O)NC1=O` .
Marked response: > 100 µM (inactive)

Exam item: Provide GI50, tested on DLD-1, for `Cc1ccc(NC(=O)CC(=O)n2nc(-c3ccccc3)c(/N=N/c3ccccc3Cl)c2-c2ccccc2)cc1` .
Marked response: > 10 µM (inactive)

Exam item: Provide GI50, tested on DLD-1, for `O=C(O)Cc1cccc2c1Oc1ccccc1S2` .
Marked response: > 100 µM (inactive)
